Assignment: determine reported cell proliferation for the given compounds.
System: HeLa cell line
Experiment: MTT cytotoxicity assay
Assay type: cell-based
Details: 48h, 75 µM, Repeat No 1
Respond numerically; units are % and should not be typed.

Summary for this compound, O=C(N/N=C/c1cc(Br)cc(Br)c1O)c1cccc(I)c1 [Compound 21] : cell proliferation is 91

Note to self: cell proliferation recorded for O=C(N/N=C/c1cc(Cl)cc(I)c1O)c1cccc(I)c1 [Compound 20] was 99

The recorded cell proliferation for entry O=C(N/N=C/c1cc(Cl)cc(I)c1O)c1ccc(I)cc1 [Compound 27] equals 51

Looking up O=C(N/N=C/c1cc(I)cc(I)c1O)c1ccccc1I [Compound 14] , I found its cell proliferation recorded as 77
